Provide the reported pIC50 of each item.
System: KMS12PE Bcl2 R129L
procedureDetails: In vitro cytotoxicity CellTiterGlo 72 h, KMS12PE Bcl2 R129L
Format: cell-based
conditionDetails: Homo sapiens, KMS-12-PE, read-out: C50 nM, KMS12PE Bcl2 R129L
Field pIC50 (float): negative decimal logarithm of the concentration in molar.

Output pIC50 of `Cc1c(C(=O)N(c2ccc(O)cc2)c2cc(C#N)n(C(F)F)c2C)cc(-c2cc3c(cc2C(=O)N2Cc4ccccc4C[C@H]2CN2CCCCC2)CN(C(=O)Cc2ccc(OCCN4CCOCC4)cc2)CC3)n1C`
8.55

Give a short answer stating reported pIC50 for `Cc1c(N(C(=O)c2cc(-c3cc4c(cc3C(=O)N3Cc5ccccc5C[C@H]3CN3CCC[C@H](C)C3)CN(C(=O)Cc3ccc(OCCN5CCOCC5)cc3F)CC4)n(C)c2C)c2ccc(O)cc2)cc(C#N)n1C` .
8.95

Answer with the recorded pIC50 for the molecule listed here: `Cc1c(C(=O)N(c2ccc(O)cc2)c2cc(C#N)n(C(F)F)c2C)cc(-c2cc3c(cc2C(=O)N2Cc4ccccc4C[C@H]2CN2CCCCC2)CN(C(=O)Cc2ccc(OCCN4CCOCC4)cc2F)CC3)n1C`
9.05

Read off the recorded pIC50 for `Cc1c(N(C(=O)c2cc(-c3cc4c(cc3C(=O)N3Cc5ccccc5C[C@H]3C)CN(C(=O)Cc3ccc(OCCC5CCOCC5)cc3)CC4)n(C)c2C)c2ccc(O)cc2)cc(C#N)n1C`
9.00

# return recorded pIC50 for entry `Cc1c(N(C(=O)c2cc(-c3cc4c(cc3C(=O)N3Cc5ccccc5C[C@H]3C)CN(C(=O)Cc3ccc(OCCN5CCSCC5)cc3)CC4)n(C)c2C)c2ccc(O)cc2)cc(C#N)n1C`
8.61

Specify measured pIC50 for `Cc1c(N(C(=O)c2cc(-c3cc4c(cc3C(=O)N3Cc5ccccc5C[C@H]3CN3CCCCC3)CN(C(=O)Cc3ccc(OCCC5CCOCC5)cc3)CC4)n(C)c2C)c2ccc(O)cc2)cc(C#N)n1C` .
8.88

Please report pIC50 for the following molecule: `COC[C@@H]1Cc2ccccc2CN1C(=O)c1cc2c(cc1-c1cc(C(=O)N(c3ccc(O)cc3)c3cc(C#N)n(C)c3C)c(C)n1C)CCN(C(=O)Cc1ccc(OCCC3CCOCC3)cc1F)C2`
8.72

Determine its reported pIC50: `Cc1c(N(C(=O)c2cc(-c3cc4c(cc3C(=O)N3Cc5ccccc5C[C@H]3C)CN(C(=O)Cc3ccc(OCCN5CCOCC5)cc3)CC4)n(C)c2C)c2ccc(O)cc2)cc(C#N)n1C`
8.82

The values you see were collected from patent US20250179047A1.
